- Assay: chemical genetic growth profiling, strain panel (AID 1159580);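 note: tested at 20 µM; growth read once vehicle control cultures reached saturation at 30 °C; lower values mean less growth of the strain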
- Condition Info: S. cerevisiae deletion strains, growth OD, locus YML124C, strain tub3
In all, about 5,500 compounds went through this assay and about 2,000 (36%) were called active. About 18% were inconclusive and are not listed. Cut-off read from the data, not from the text of the source: active = normalized growth mostly below about 0.91 (no sharp cut-off); inconclusive = no clear call, values can overlap the other calls; inactive = mostly above about 0.92. The list shows a part of the results.
One label from this list, please: active, inactive

Worked examples follow.
| Compound | Category |
| --- | --- |
| CC/C(=C(\c1ccccc1)c1ccc(OCCN(C)C)cc1)c1ccccc1 | active |
| CC(=O)O[C@H]1C[C@@H](OC(C)=O)C(C)(C)C2C[C@@H](OC(C)=O)[C@@]3(C)C4=CC(=O)O[C@@H](c5ccoc5)[C@]4(C)CCC3[C@]21C (stereo partly drawn) | inactive |
| CC(C)(C)NC[C@@H](O)COc1nsnc1N1CCOCC1 | inactive |
| COC(=O)C[C@H]1C(C)(C)C(=O)[C@@H]2CC3=C4CC(=O)O[C@@H](c5ccoc5)[C@]4(C)CCC3[C@@]1(C)C2=O (stereo partly drawn) | inactive |

Task: Give the logged outcome of this assay for the following compound: C=C(C)[C@H]1CC=C(C(=O)O)CC1
Result: inactive

Task: Repeat for the following compound: COC(=O)Oc1ccccc1C(=O)O
Result: inactive

Task: Repeat for the following compound: COc1cc(C(=O)NCc2ccc(OCCN(C)C)cc2)cc(OC)c1OC
Result: inactive

Task: Repeat for the following compound: CN1C(CC(=O)c2ccccc2)CCCC1CC(O)c1ccccc1 (stereo not drawn)
Result: inactive

Task: Repeat for the following compound: CCN(CC)CCOc1ccc2c(c1)C(=O)c1cc(OCCN(CC)CC)ccc1-2
Result: inactive

Task: Repeat for the following compound: O=C(O)c1cccnc1Nc1cccc(C(F)(F)F)c1
Result: active

Task: Repeat for the following compound: COc1ccccc1OCCNCC(O)COc1cccc2[nH]c3ccccc3c12 (stereo not drawn)
Result: inactive

Task: Repeat for the following compound: c1ccc2c(c1)cc1ccc3cccc4ccc2c1c34
Result: inactive

Task: Repeat for the following compound: CSCCC(NC=O)C(=O)NC(C)C(=O)O (stereo not drawn)
Result: inactive
